Hello, the source for this data is ChEMBL document CHEMBL1136128, in case you need it.

target: UniProt P34158; test: Percent activity against CFTR (cystic fibrosis transmembrane conductance regulator) in rat relative to UCCF-152(50 uM)
Assign labels as follows, please: Satisfied for Activity below 30%; Not satisfied for Activity equal to or exceeding 30%.

1) COc1ccccc1-c1cc(CCl)on1 : Satisfied
2) COc1ccc(COc2ccccc2-c2cc(CCO)on2)cc1 : Not satisfied

Problem: Please indicate whether the reported Activity of `COc1ccc(COc2ccc(Br)cc2-c2cc(CCl)on2)cc1` is strictly below 30%.
Result: Satisfied

Problem: Please indicate whether the reported Activity of `COc1ccc(COc2ccc(-c3cc(CCl)on3)cc2)cc1` is strictly below 30%.
Result: Satisfied

Problem: Please indicate whether the reported Activity of `COCc1cc(-c2ccccc2OCc2ccc(Br)cc2)no1` is strictly below 30%.
Result: Satisfied

====

target: Cystic fibrosis transmembrane conductance regulator (Rattus norvegicus); test: Percent activity against CFTR (cystic fibrosis transmembrane conductance regulator) in rat relative to UCCF-152(50 uM)
Activity: recorded values
Give the value, in units of %, as a plain number.

Reference set (6 entries):
1. COC(=O)C1CC(c2ccccc2OCc2ccc(OC)cc2)=NO1 (configuration not stated) : 64
2. CCCCc1cc(-c2ccccc2OCc2ccc(OC)cc2)no1 : 8
3. OCc1cc(-c2ccccc2OCc2ccc(Br)cc2)no1 : 39
4. ClCc1cc(-c2ccccc2OCc2ccc(Br)cc2)no1 : 25
5. COc1ccc(COc2ccccc2-c2cc(CO)on2)cc1 : 45
6. COc1ccc(COc2cccc(-c3cc(CCl)on3)c2)cc1 : 2

Problem: Please indicate Activity recorded for `COc1cccc(COc2ccccc2-c2cc(CCO)on2)c1`
Result: 31

Problem: Please indicate Activity recorded for COc1cccc(COc2ccccc2C2=NOC(CCl)C2)c1 (configuration not stated)
Result: 58

Problem: Please indicate Activity recorded for COc1cccc(COc2ccccc2C2=NOC(CO)C2)c1 (configuration not stated)
Result: 29

====

target: Cystic fibrosis transmembrane conductance regulator (Rattus norvegicus) (UniProt P34158); test: Percent activity against CFTR (cystic fibrosis transmembrane conductance regulator) in rat relative to UCCF-152(50 uM)
Sequence (P34158 whole entry): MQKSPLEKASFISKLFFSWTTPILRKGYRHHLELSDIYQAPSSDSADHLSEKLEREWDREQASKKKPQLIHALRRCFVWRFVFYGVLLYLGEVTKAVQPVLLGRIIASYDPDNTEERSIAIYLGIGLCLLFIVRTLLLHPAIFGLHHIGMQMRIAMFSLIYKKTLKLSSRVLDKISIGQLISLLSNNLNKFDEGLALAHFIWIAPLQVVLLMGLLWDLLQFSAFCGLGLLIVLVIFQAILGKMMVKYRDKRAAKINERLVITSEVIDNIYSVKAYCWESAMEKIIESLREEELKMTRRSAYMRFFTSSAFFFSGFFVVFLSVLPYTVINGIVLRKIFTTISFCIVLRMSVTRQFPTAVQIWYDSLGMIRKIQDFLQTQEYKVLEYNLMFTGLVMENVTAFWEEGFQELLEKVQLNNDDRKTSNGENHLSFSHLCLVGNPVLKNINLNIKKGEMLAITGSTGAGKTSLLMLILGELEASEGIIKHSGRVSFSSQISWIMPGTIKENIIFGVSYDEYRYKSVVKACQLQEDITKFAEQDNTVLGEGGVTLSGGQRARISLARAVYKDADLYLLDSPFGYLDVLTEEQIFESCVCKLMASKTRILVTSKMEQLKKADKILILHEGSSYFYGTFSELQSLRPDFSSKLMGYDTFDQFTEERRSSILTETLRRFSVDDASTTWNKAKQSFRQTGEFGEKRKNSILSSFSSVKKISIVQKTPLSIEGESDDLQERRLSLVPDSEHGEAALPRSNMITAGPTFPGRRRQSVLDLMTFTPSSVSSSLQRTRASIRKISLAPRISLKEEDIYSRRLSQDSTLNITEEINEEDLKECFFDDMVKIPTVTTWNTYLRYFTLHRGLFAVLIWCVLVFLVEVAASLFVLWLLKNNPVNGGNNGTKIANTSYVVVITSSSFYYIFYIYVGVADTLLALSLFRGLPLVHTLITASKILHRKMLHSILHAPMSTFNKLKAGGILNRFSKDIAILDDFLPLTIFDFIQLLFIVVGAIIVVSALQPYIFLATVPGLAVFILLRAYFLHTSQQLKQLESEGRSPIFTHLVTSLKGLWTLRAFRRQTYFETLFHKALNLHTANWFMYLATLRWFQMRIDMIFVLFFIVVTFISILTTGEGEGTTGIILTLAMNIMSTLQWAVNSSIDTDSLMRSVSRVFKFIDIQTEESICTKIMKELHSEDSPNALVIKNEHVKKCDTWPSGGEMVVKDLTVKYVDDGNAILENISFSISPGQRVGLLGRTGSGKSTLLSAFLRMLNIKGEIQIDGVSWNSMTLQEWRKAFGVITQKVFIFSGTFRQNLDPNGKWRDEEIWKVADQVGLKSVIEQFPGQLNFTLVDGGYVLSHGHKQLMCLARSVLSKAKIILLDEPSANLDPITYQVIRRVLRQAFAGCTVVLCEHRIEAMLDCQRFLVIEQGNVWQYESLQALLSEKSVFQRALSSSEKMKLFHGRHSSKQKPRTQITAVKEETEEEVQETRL
The following ranges of Activity define the classes used here: lo: < 30%; med: ≥ 30% and < 60%; hi: ≥ 60%

Check out these entries, answers already filled in.
1) COc1ccccc1-c1cc(CO)on1 : lo
2) OCCc1cc(-c2ccccc2OCc2ccc(Br)cc2)no1 : hi
3) COc1cccc(COc2ccccc2-c2cc(CO)on2)c1 : med

# ---- query compound ----
Problem: Which band does `COC(=O)c1onc(-c2ccccc2OCc2ccc(Br)cc2)c1C(=O)OC` fall in?
Result: lo

====

molecular target: Cystic fibrosis transmembrane conductance regulator (Rattus norvegicus) (UniProt P34158); assay: Percent activity against CFTR (cystic fibrosis transmembrane conductance regulator) in rat relative to UCCF-152(50 uM)
Activity: recorded values
Just so you know, I need the unit written after the number.

Reference set (2 entries):
1. COc1ccc(COc2ccccc2C2=NOC(CO)C2)cc1 (stereo not drawn) : 63%
2. COC(=O)C1CC(c2ccccc2OCc2ccc(Br)cc2)=NO1 (stereo not drawn) : 48%

Please find the next molecule below.
Problem: Look up Cystic fibrosis transmembrane conductance regulator (Rattus norvegicus) (UniProt P34158) data: Activity of `COC(=O)c1cc(-c2ccccc2OCc2ccc(Br)cc2)no1` , then report it.
Result: 32%

====

Activity: recorded values
molecular target: Cystic fibrosis transmembrane conductance regulator (Rattus norvegicus); test: Percent activity against CFTR (cystic fibrosis transmembrane conductance regulator) in rat relative to UCCF-152(50 uM)
Give the value, in units of %, as a plain number.

Reference set (3 entries):
1. COc1ccc(COc2ccccc2-c2cc(CCl)on2)cc1 : 72
2. COc1ccc(COc2ccc(Br)cc2-c2cc(CO)on2)cc1 : 30
3. COC(=O)C1CC(c2ccccc2OCc2cccc(OC)c2)=NO1 (stereo not given) : 29

Problem: Please indicate Activity recorded for COc1ccc(COc2ccccc2C2=NOC(CCl)C2)cc1 (stereo not given)
Result: 61

Problem: Please indicate Activity recorded for COC(=O)C1CC(c2cc(Br)ccc2OCc2ccc(OC)cc2)=NO1 (stereo not given)
Result: 41
